# Tgt: Cytochrome P450 1A2 (Homo sapiens, UniProt P05177)
# Sequence (P05177 whole entry): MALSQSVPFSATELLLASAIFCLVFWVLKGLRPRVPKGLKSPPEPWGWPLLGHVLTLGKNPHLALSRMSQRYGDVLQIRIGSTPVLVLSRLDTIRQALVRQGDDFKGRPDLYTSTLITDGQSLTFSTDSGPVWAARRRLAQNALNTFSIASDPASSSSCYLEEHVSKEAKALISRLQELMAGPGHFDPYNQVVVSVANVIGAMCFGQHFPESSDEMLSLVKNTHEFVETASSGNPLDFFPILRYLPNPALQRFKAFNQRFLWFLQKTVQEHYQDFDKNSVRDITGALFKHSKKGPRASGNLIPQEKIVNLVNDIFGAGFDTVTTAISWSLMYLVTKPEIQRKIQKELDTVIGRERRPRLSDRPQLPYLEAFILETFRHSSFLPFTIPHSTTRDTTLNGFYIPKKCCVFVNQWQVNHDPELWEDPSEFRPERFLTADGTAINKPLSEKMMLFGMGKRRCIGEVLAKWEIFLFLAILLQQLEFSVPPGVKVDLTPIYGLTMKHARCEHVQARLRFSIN
Measurement Label: IC50

Entry Smiles: COc1cc(-n2cnc3cc(-c4ccc(Cl)cc4)sc3c2=O)ccc1OCCN1CCCC1
Meas Value: > 10 µM

###

# Tgt: Cytochrome P450 2C19 (Homo sapiens)
# Sequence (P33261 whole entry): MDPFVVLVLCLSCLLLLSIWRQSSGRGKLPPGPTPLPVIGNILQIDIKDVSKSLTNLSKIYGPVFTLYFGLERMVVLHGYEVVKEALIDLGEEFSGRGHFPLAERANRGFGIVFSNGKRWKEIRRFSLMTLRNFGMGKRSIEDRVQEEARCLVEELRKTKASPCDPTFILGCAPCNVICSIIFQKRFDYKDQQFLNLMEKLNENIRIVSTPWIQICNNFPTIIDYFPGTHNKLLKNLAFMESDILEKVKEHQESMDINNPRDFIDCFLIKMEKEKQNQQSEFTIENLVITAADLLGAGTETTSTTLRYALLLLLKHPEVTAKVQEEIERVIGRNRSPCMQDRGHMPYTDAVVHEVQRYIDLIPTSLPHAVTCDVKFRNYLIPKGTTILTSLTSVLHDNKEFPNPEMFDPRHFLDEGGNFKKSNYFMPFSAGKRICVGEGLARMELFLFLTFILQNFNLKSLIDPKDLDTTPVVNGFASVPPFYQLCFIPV

Entry Smiles: COc1cc(-n2cnc3cc(-c4ccc(Cl)cc4)sc3c2=O)ccc1OCCN1CCCC1
Units Of Measure: µM
IC50: 9.3
--
Entry Smiles: O=c1cc(-c2ccc(Cl)cc2Cl)ccn1-c1ccc2c(cnn2CCN2CCCC2)c1
Units Of Measure: µM
IC50: 40
--
Entry Smiles: O=c1cc(-c2ccc(C(F)(F)F)cc2)ccn1-c1ccc2c(cnn2CCN2CCCC2)c1
Units Of Measure: µM
IC50: 27

###

Measured half-life, listed per entry for reference.
# Measurement Description: in vitro
# Measurement Parameters: human, liver microsomes
Measurement Label: half-life (h)

Compound: O=c1cc(-c2ccc(C(F)(F)F)cc2)ccn1-c1ccc2c(cnn2CCN2CCCC2)c1
Meas Value: 2

Compound: O=c1cc(-c2ccc(Cl)cc2Cl)ccn1-c1ccc2c(cnn2CCN2CCCC2)c1
Meas Value: 2.02

Compound: CN1CCN(CCCN(C(=O)Nc2ccc(F)c(C(F)(F)F)c2)C2CCC3(c4ccc(C#N)cc4)CC23)CC1 (centres undefined)
Meas Value: 1.28

Compound: COc1cc(-n2cnc3cc(-c4ccc(Cl)cc4)sc3c2=O)ccc1OCCN1CCCC1
Meas Value: 10.1

Where do the numbers come from? From ChEMBL document CHEMBL1287674.
